Biological target: SpsB (Staphylococcus aureus signal peptidase) (Staphylococcus aureus, UniProt P0A070)
Construct: This assay uses a suspension of Staphylococcus aureus cells as a source of SpsB instead of recombinant SpsB protein; endogenous in cells; host or cells: S. aureus, USA300 background, overexpressing SpsB (whole-cell suspension from frozen pellets)
Sequence (P0A070 whole entry): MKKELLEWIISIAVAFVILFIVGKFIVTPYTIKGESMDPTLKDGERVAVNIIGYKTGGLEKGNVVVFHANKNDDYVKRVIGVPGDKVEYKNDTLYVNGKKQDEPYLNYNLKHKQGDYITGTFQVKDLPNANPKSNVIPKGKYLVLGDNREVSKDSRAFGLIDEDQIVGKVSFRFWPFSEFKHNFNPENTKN
Test: cell-based
Format: biochemical
Conditions: SpsB IC50, whole-cell S. aureus (USA300 background, overexpressing SpsB) as SpsB source; fluorogenic peptide substrate, kinetic read 30 min
PARAMETER_MEASURED: pIC50
Just so you know, pIC50 here is -log10 of the concentration in molar units; reply with that number alone.

| SMILES_STR | TARGET_SYSTEM | RESULT |
| --- | --- | --- |
| CCCCCCCOc1cc(F)c(C(=O)N[C@@H](CCN)C(=O)N(C)[C@@H]2C(=O)N[C@@H](C)C(=O)N[C@H](C(=O)NCC#N)Cc3ccc(OCCN)c(c3)-c3cc2ccc3OCCN)c(Cl)c1 | SpsB (Staphylococcus aureus signal peptidase) (Staphylococcus aureus, UniProt P0A070) | 8.89 |
| C[C@@H]1NC(=O)[C@@H](N(C)C(=O)[C@H](CCCCN)NC(=O)c2ccc(-c3cc(Cl)cc(Cl)c3)cc2)c2ccc(OCCN)c(c2)-c2cc(ccc2OCCN)C[C@@H](C(=O)NCC#N)NC1=O | SpsB (Staphylococcus aureus signal peptidase) (Staphylococcus aureus, UniProt P0A070) | 9.00 |
| Cc1cc(-c2ccc(C(C)C)cc2)ccc1C(=O)N[C@@H](CCN)C(=O)N(C)[C@@H]1C(=O)N[C@@H](C)C(=O)N[C@H](C(=O)NCC#N)Cc2ccc(OCCN)c(c2)-c2cc1ccc2OCCN | SpsB (Staphylococcus aureus signal peptidase) (Staphylococcus aureus, UniProt P0A070) | 9.23 |
| C[C@@H]1NC(=O)[C@@H](N(C)C(=O)[C@H](CCCCN)NC(=O)c2ccc(-c3ccc(-c4ccccc4)cc3)cc2)c2ccc(OCCN)c(c2)-c2cc(ccc2OCCN)C[C@@H](C(=O)NCC#N)NC1=O | SpsB (Staphylococcus aureus signal peptidase) (Staphylococcus aureus, UniProt P0A070) | 8.85 |

Next:
*Q* State its pIC50 for this compound: CCCCCCCCCCCC(=O)N[C@@H](CCC(=O)O)C(=O)N(C)[C@@H]1C(=O)N[C@@H](C)C(=O)N[C@H](C(=O)NCC#N)Cc2ccc(OCCN)c(c2)-c2cc1ccc2OCCN
*A* 7.92

Data origin, for the record: patent US20180327367A1
